target: PDGFRb (Homo sapiens); construct: The kinase domain of PDGFRβ was assayed in 50 mM Hepes; purchased Invitrogen P3082; test: PDGFRb kinase in vitro biochemical assay (alphascreen); conditions: tested at about 1 μM; read-out: PDGF RK BETA percent inhibition
Sequence (P09619 600-962 limits assumed): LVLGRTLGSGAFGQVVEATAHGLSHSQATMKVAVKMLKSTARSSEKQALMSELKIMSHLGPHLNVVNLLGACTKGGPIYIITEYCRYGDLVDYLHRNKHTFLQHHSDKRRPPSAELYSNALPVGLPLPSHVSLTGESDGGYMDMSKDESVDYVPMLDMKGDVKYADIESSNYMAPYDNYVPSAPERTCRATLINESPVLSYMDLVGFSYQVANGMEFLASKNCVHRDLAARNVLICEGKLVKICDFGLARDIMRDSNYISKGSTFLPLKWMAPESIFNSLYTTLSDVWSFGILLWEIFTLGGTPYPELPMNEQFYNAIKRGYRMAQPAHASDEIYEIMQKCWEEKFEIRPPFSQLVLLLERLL
Binary call on inhibition at 1 µM: Condition met from 20% upward, Condition not met beneath that.

mol: C[C@H](Nc1nc2ccc(Oc3ccc(C#N)nc3)cc2s1)C1CCCCC1
assigned.category: Condition not met
//
mol: C[C@H](Nc1nc2ccc(Oc3cncc(-n4cncn4)n3)cc2s1)C1CCCCC1
assigned.category: Condition not met
//
mol: Nc1ccc(Oc2ccc3nc(N[C@@H]4CCCC[C@H]4O)sc3c2)nn1
assigned.category: Condition met
//
mol: O[C@@H]1CCCC[C@H]1Nc1nc2ccc(Oc3ccnc(-c4ccncc4)n3)cc2s1
assigned.category: Condition met
//
mol: CC(C)(C)OC(=O)N1CC=C(c2cncc(Oc3ccc4nc(N[C@@H]5CCCC[C@H]5O)sc4c3)c2)CC1
assigned.category: Condition not met
//
mol: Nc1ccc(Oc2ccc3nc(NCC4CCCCC4)sc3c2)nn1
assigned.category: Condition not met
//
mol: COc1cc2ncnc(Oc3ccc4nc(NCC5CCCCC5)sc4c3)c2cc1OC
assigned.category: Condition met
//
mol: O[C@@H]1CCCC[C@H]1Nc1nc2ccc(Oc3cncc(-c4cccnc4)n3)cc2s1
assigned.category: Condition not met
